Task for the reader: assign each of the following binders its reported SPOT peptide array binding signal intensity.
# study_system: SpSla1-D3
# test: SPOT peptide array binding signal intensity (averaged, normalized) (arbitrary units (background-subtracted, floor 0; scale differs between SH3 domains)); higher = stronger binding of the SH3 domain to the peptide
Please state the value as a number alone, without comment.

query: // lookup SPOT peptide array binding signal intensity for PLRRTVMSLPGNHDI
result: 126

query: May I ask what SPOT peptide array binding signal intensity has been recorded for VPPVPLPFGIPPFPM ?
result: 6

query: Would you mind telling me what SPOT peptide array binding signal intensity value was observed for NHSRSLFSLPGNQQS ?
result: 13.5

query: Can you share its SPOT peptide array binding signal intensity? I mean this binder: FSRRQSMDIPSKNRN
result: 279

query: Would you kindly share the measured SPOT peptide array binding signal intensity for VPPPMQPPPIESSNL ?
result: 138

query: May I ask what SPOT peptide array binding signal intensity has been recorded for FLIKFTPKFPQSIDH ?
result: 172

query: Can you share its SPOT peptide array binding signal intensity? I mean this binder: RSLRKRPTSPSISGS
result: 8

query: Query (binder): KTRLRPAFIQQLWSS ; field requested: SPOT peptide array binding signal intensity
result: 8

query: What does the data say about its SPOT peptide array binding signal intensity? Entry: GERSRPLVISILSSA
result: 11

query: Name the recorded SPOT peptide array binding signal intensity for KDKSRPPRPPPKPLH .
result: 3

query: Name the recorded SPOT peptide array binding signal intensity for FPPKRKPLLRPQRSD .
result: 3

query: Entry under review: VLRFLGFPLPIFEKG . Reported SPOT peptide array binding signal intensity?
result: 1

query: Look up SPOT peptide array binding signal intensity: NTMKKRPAPPSLPSL
result: 156

query: Fill in: SPOT peptide array binding signal intensity of AGKRRLPLVRFKASD is ___
result: 17.5

query: Any idea what its SPOT peptide array binding signal intensity is? The binder is IKKRNKIRLPSGSPE
result: 2

query: Quick one: SPOT peptide array binding signal intensity for RVTRKRPREPKSTND ?
result: 5

query: I am curious: what SPOT peptide array binding signal intensity value has been reported for SRYRRPLTLLLLKPF ?
result: 6.5

query: I am curious: what SPOT peptide array binding signal intensity value has been reported for KNRKNLPTIPIRLSG ?
result: 6

query: Given the binder PSPSSSPPPIPKTAN , what is its reported SPOT peptide array binding signal intensity?
result: 3

query: Give its SPOT peptide array binding signal intensity value. Item: QPPLPSSAPPIPTSH
result: 3.5

query: Reported SPOT peptide array binding signal intensity for RNNRPVPPPPPMRTT : what is it?
result: 7
